# measurementContext: rat, in vivo, iv, 2 mg/kg
Bridge positions count the residues as written; N and C are the ends. Square brackets hold non-standard residues; d marks the D form. Peptide text beside a SMILES is read from it. * marks the point of attachment. Piperazin2one(3S-Bu,6R-CO) = CCCC[C@@H]1NC[C@H](C(=O)*)NC1=O; X1 = N=C(N)NCCC[C@H]1C(=O)N[C@@H](C(N)=O)CN1*; Nle = CCCC[C@H](N)C(=O)O
measuredEndpoint: AUC (µM·h)
Number in µM·h, nothing else.

Complete the entry with AUC for CCCC[C@@H]1NC[C@H](C(=O)N[C@H]2CSSC[C@@H](C(=O)N[C@@H](Cc3ccc(O)cc3)C(=O)N3C[C@H](C(N)=O)NC(=O)[C@@H]3CCCNC(=N)N)NC(=O)[C@H](C)NC(=O)[C@H]([C@@H](C)CC)NC(=O)[C@H](CCCNC(=N)N)NC(=O)[C@H](CC(=O)O)NC(=O)[C@H](CCCC)NC(=O)[C@H](CCCNC(=N)N)NC(=O)CNC(=O)CNC(=O)[C@H](Cc3ccccc3)NC(=O)[C@H](C)NC2=O)NC1=O [1-69] ({Piperazin2one(3S-Bu,6R-CO)}-CAFGGR[Nle]DRIACY-X1; disulfide 1-12)
0.113
